- Tested on: DMS 114 small cell lung
- test-name: NCI tumour cell line growth inhibition, 48 h
quantity-kind: TGI

input: // query TGI value for entry N#CCC(=O)N/N=C1/C(=O)N(c2cc(Cl)ccc2Cl)C(=O)C(=O)C1c1nc2ccccc2s1 (stereo not given)
output: > 100 µM

input: What do we get for CSc1nc(CO)c(CO)n1C ?
output: > 100 µM

input: What do we get for Cc1ccc(NC(=O)CC/C(CC(=O)C(C)(C)C)=N\NC(=O)C[n+]2ccccc2)cc1C ?
output: > 100 µM

input: What do we get for O=C(N/C(=C\c1cccc([N+](=O)[O-])c1)c1nc2ccccc2[nH]1)c1ccccc1 ?
output: > 100 µM

Please turn your attention to the following entry.
input: // query TGI value for entry Cn1c2c(c3ccccc31)CCN(CCCCN1CCN(c3ccccc3)CC1)C2=O
output: > 79.1 µM
